These entries and their values trace back to PubChem BioAssay AID1892.

target: Mitogen-activated protein kinase kinase kinase 2 (Homo sapiens); test: wildtype MEKK2 PB1-MEK5 interaction enhancers or blockers – biochemical, single concentration, multiplex bead flow cytometry, confirmation (AID 1892); conditions: Alexa488-MEK5 binding to MEKK2 WT, at 10 µM, actives lie on both sides
Screen size: about 5,900 compounds; about 140 (2.4%) were called active. Cut-off read from the data, not from the text of the source: active = binding response below about 16% or above about 210%; inactive = in between. The sample holds actives, similar compounds and a random draw of the others, so the mix is not that of the screen.
Entry note: the call must match one of TRUE for active, FALSE for inactive

Record excerpt, results attached:
CCN(CC)CCC(c1ccc2c(c1)OCO2)c1c(OC)cc(OC)c2c(-c3ccccc3)cc(=O)oc12 (stereo not given) : FALSE
CCN1CCN(c2nc(Nc3cc(OC)ccc3OC)nc(Nc3cc(OC)ccc3OC)n2)CC1 : FALSE
O=C(CN1CCN(C(=O)c2ccco2)CC1)Nc1ccc(Cl)c(C(F)(F)F)c1 : FALSE

Here's the next entry for you.
query: Hello, I am checking results. What call was entered for CC(C)(C)NC(=O)Cn1cnc([N+](=O)[O-])n1 ?
result: FALSE
